system: MDA-MB-231; experiment: Growth inhibition of human MDA-MB-231 cells assessed as cell growth at 0.1 uM incubated for 48 hrs by sulforhodamine B assay relative to control; type: functional; conditions: MDA-MB-231, 48 h, read-out: Activity
# if measured growth at 0.1 µM < 90%: yes (1)  # else: no (0)

Worked set:
1. COc1cc(Cl)cc(-c2nn(-c3cccc(NC(=O)Nc4ccc(Cl)c(Cl)c4)c3)cc2-c2ccncc2)c1: no (0)
2. O=C(Nc1cccc(-n2cc(-c3ccncc3)c(-c3cc(O)cc(Cl)c3)n2)c1)Nc1ccc(Cl)c(Cl)c1: yes (1)
3. COc1cc(Cl)cc(-c2nn(-c3cccc(NC(=O)c4ccc(N5CCOCC5)c(C(F)(F)F)c4)c3)cc2-c2ccncc2)c1: no (0)

Take the compound "COc1cc(Cl)cc(-c2nn(-c3cccc(NC(=O)Nc4cccc(C(F)(F)F)c4)c3)cc2-c2ccncc2)c1" and say whether its growth at 0.1 µM is less than 90%.
no (0)

* * *

tested on: SW-620; experiment: Growth inhibition of human SW620 cells incubated for 48 hrs by sulforhodamine B assay; assay type: functional, cell-based; details: SW-620, 48 h, read-out: GI50
Listed here: items and their measured GI50.

Recorded GI50, per entry:
1. COc1cc(Cl)cc(-c2nn(-c3cccc(NC(=O)c4ccc(N5CCOCC5)c(C(F)(F)F)c4)c3)cc2-c2ccncc2)c1: 2.96 µM
2. COc1cc(Cl)cc(-c2nn(-c3cccc(NC(=O)Nc4ccc(Cl)c(C(F)(F)F)c4)c3)cc2-c2ccncc2)c1: 1.51 µM
3. COc1cc(Cl)cc(-c2nn(-c3cccc(NC(=O)c4cccc(C(F)(F)F)c4)c3)cc2-c2ccncc2)c1: > 100 µM
4. COc1cc(Cl)cc(-c2nn(-c3cccc(NC(=O)Nc4cccc(C(F)(F)F)c4)c3)cc2-c2ccncc2)c1: 2.3 µM

Now consider a different compound.
Value lookup for GI50; key = "COc1cc(Cl)cc(-c2nn(-c3cccc(NC(=O)Nc4cc(C(F)(F)F)cc(C(F)(F)F)c4)c3)cc2-c2ccncc2)c1"
0.3 µM

* * *

Documented CC50 across a set of compounds
system: T47D; test: Growth inhibition of human T47D cells incubated for 48 hrs by sulforhodamine B assay; format: functional, cell-based; conditions: read-out: pLC50 (the source's name) (converted)

1) COc1cc(Cl)cc(-c2nn(-c3cccc(NC(=O)Nc4cc(C(F)(F)F)cc(C(F)(F)F)c4)c3)cc2-c2ccncc2)c1: > 100 µM
2) COc1cc(Cl)cc(-c2nn(-c3cccc(NC(=O)Nc4ccc(Cl)c(Cl)c4)c3)cc2-c2ccncc2)c1: > 100 µM
3) O=C(Nc1cccc(-n2cc(-c3ccncc3)c(-c3cc(O)cc(Cl)c3)n2)c1)Nc1ccc(Cl)c(C(F)(F)F)c1: 91.2 µM

Record "COc1cc(Cl)cc(-c2nn(-c3cccc(NC(=O)Nc4cccc(C(F)(F)F)c4)c3)cc2-c2ccncc2)c1" : what is its CC50 with T47D?
> 100 µM

* * *

Reported growth at 1 µM values for a set of molecules
tested on: SK-MEL-5; experiment: Growth inhibition of human SK-MEL-5 cells assessed as cell growth at 1 uM incubated for 48 hrs by sulforhodamine B assay relative to control; type: functional; conditions: SK-MEL-5, 48 h, read-out: Activity
Record the value in %, omitting the unit from your answer.

Examples with answers:
1. COc1cc(Cl)cc(-c2nn(-c3cccc(NC(=O)c4ccc(N5CCOCC5)c(C(F)(F)F)c4)c3)cc2-c2ccncc2)c1: 50
2. COc1cc(Cl)cc(-c2nn(-c3cccc(NC(=O)Nc4ccc(Cl)c(Cl)c4)c3)cc2-c2ccncc2)c1: 88
3. COc1cc(Cl)cc(-c2nn(-c3cccc(NC(=O)Nc4cccc(C(F)(F)F)c4)c3)cc2-c2ccncc2)c1: 80

Continue with the molecule presented below.
Form field: reported growth at 1 µM of "O=C(Nc1cccc(-n2cc(-c3ccncc3)c(-c3cc(O)cc(Cl)c3)n2)c1)Nc1ccc(Cl)c(C(F)(F)F)c1"
90
